// provenance: patent US20230025510A1

tested on: Ba/F3-Mock cells; experiment: Cell proliferation suppression test (CellTiter-Glo, GI50), Ba/F3-Mock; assay type: cell-based; details: Mus musculus, BaF3, 72 h, 5 ng/mL IL-3, 3 days, N=4
Each entry below lists one item and its recorded GI50 value.

- molecule: "C=CC(=O)N1CCC(Oc2cc3c(Nc4ccc(Oc5ccn(-c6ccnc(Cl)c6)n5)cc4F)ncnc3cc2OC)CC1 [Example 29]"
  experimental-target: "Ba/F3-Mock cells"
  comparative-sign: ">"
  GI50 (nM): 10000
- molecule: "C=CC(=O)N1CCC(Oc2cc3c(Nc4ccc(Oc5nc(-c6cnc(C)c(F)c6)cs5)cc4F)ncnc3cc2OC)CC1 [Example 11]"
  experimental-target: "Ba/F3-Mock cells"
  comparative-sign: ">"
  GI50 (nM): 10000
- molecule: "CCc1nnc(-c2cccc(Oc3ccc(Nc4ncnc5cc(OC)c(NC(=O)/C=C/CN(C)C)cc45)c(F)c3)c2)o1 [Example 41]"
  experimental-target: "Ba/F3-Mock cells"
  comparative-sign: "="
  GI50 (nM): 841
- molecule: "C=CC(=O)N1CCC(Oc2cc3c(Nc4ccc(Oc5ccn(-c6ccc(C)nc6)n5)cc4F)ncnc3cc2OC)CC1 [Example 28]"
  experimental-target: "Ba/F3-Mock cells"
  comparative-sign: "="
  GI50 (nM): 8370
- molecule: "COc1cc2ncnc(Nc3ccc(Oc4nn(CC(=O)NC(C)(C)C)cc4F)cc3F)c2cc1NC(=O)/C=C/CN1CC(F)C1 [Example 59]"
  experimental-target: "Ba/F3-Mock cells"
  comparative-sign: ">"
  GI50 (nM): 10000
- molecule: "C=CC(=O)N1CCC(Oc2cc3c(Nc4ccc(Oc5ccn(C(=O)NC6(C)CC6)n5)cc4F)ncnc3cc2OC)CC1 [Example 8]"
  experimental-target: "Ba/F3-Mock cells"
  comparative-sign: "="
  GI50 (nM): 7160
- molecule: "C=CC(=O)N1CCC(Oc2cc3c(Nc4ccc(Oc5ccn(C(=O)NC(C)(C)CF)n5)cc4F)ncnc3cc2OC)CC1 [Example 5]"
  experimental-target: "Ba/F3-Mock cells"
  comparative-sign: ">"
  GI50 (nM): 10000

###

system: Ba/F3-EGFR ins. SVD cells; experiment: Cell proliferation suppression test (CellTiter-Glo, GI50), Ba/F3-EGFR ins. SVD; type: cell-based; settings: Mus musculus, 72 h, 3 days, N=4
attribute-measured: log10 of GI50 (log10 of the value in nM)

- entry-smiles: "COc1cc2ncnc(Nc3ccc(Oc4nc(C(=O)NC(C)(C)C)cs4)cc3F)c2cc1NC(=O)/C=C/CN(C)C"
  experimental-target: "Ba/F3-EGFR ins. SVD cells"
  attribute-measured: "log10 of GI50"
  numeric-readout: 1.86
- entry-smiles: "C=CC(=O)N1CCC(Oc2cc3c(Nc4ccc(Oc5ccn(-c6cnc(C7CC7)nc6)n5)cc4F)ncnc3cc2OC)CC1"
  experimental-target: "Ba/F3-EGFR ins. SVD cells"
  attribute-measured: "log10 of GI50"
  numeric-readout: 0.88
- entry-smiles: "C=CC(=O)N1CCC(Oc2cc3c(Nc4ccc(Oc5ccn(C(=O)NC(C)(C)C)n5)cc4F)ncnc3cc2OC)CC1"
  experimental-target: "Ba/F3-EGFR ins. SVD cells"
  attribute-measured: "log10 of GI50"
  numeric-readout: 0.70
- entry-smiles: "C=CC(=O)N1CCC(Oc2cc3c(Nc4ccc(Oc5nc(-c6ccc(OC)nc6)cs5)cc4F)ncnc3cc2OC)CC1"
  experimental-target: "Ba/F3-EGFR ins. SVD cells"
  attribute-measured: "log10 of GI50"
  numeric-readout: 1.11
- entry-smiles: "[2H]C([2H])([2H])Oc1cc2ncnc(Nc3ccc(Oc4ccn(C(=O)NC(C([2H])([2H])[2H])(C([2H])([2H])[2H])C([2H])([2H])[2H])n4)cc3F)c2cc1OC1CCN(C(=O)C=C)CC1"
  experimental-target: "Ba/F3-EGFR ins. SVD cells"
  attribute-measured: "log10 of GI50"
  numeric-readout: 0.86
- entry-smiles: "C=CC(=O)N1CCC(Oc2cc3c(Nc4ccc(Oc5cccc(C(=O)NC(C)(C)C)c5)cc4F)ncnc3cc2OC)CC1"
  experimental-target: "Ba/F3-EGFR ins. SVD cells"
  attribute-measured: "log10 of GI50"
  numeric-readout: 0.95
